B1: CROP (parent)
chain: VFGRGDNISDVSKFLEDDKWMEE

# Variants of: B1
# Test summary: protein stability index of a GFP-peptide fusion (GPS, HEK-293T) (PSI 1-6); higher = more stable;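 also: lentivirally expressed fusions sorted by FACS into six bins by GFP to DsRed ratio, PSI derived from sequencing read proportions per bin multiplied by bin number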
# Condition label: c terminus: native
Just so you know, the groups by protein stability index go like this: Low (below 2), Medium (2 to below 3), High (3 or more)

E22W High
V1H Medium
E22Q High
F14R High
W20V High
S9N Low
D17E Medium
L15M Medium

## Input State the class of the variant shown: D17V
## Output Low

## Input State the class of the variant shown: D17Y
## Output Medium

## Input State the class of the variant shown: K13V
## Output Low

## Input State the class of the variant shown: R4M
## Output Medium

## Input State the class of the variant shown: W20C
## Output High

## Input State the class of the variant shown: W20S
## Output High

## Input State the class of the variant shown: F2T
## Output High

## Input State the class of the variant shown: N7S
## Output Low

## Input State the class of the variant shown: E16N
## Output High

## Input State the class of the variant shown: W20E
## Output High

## Input State the class of the variant shown: F2I
## Output Low

## Input State the class of the variant shown: F14I
## Output High
